Hello, the source for this data is ChEMBL document CHEMBL2021765, in case you need it.

Reported inhibition in vivo at 4 mg/kg values for a set of compounds
- Tested on: Mus musculus
- ASSAY OVERVIEW: Antiinflammatory activity in overnight fasted Kunming mouse assessed as inhibition of xylene-induced ear swelling at 4 mg/kg, ip administered before challenge for 5 days measured 1 hr post xylene challenge
- Type: functional
- REPORTED CONDITIONS: route intraperitoneal
# number only, unit % dropped from output

// known answers, use as guide
COMPOUND | TARGET OR SYSTEM | inhibition in vivo at 4 mg/kg / %
S=C(Nc1ccccc1)N1CCC(=C2c3ccc(Cl)cc3CCc3cccnc32)CC1 | Mus musculus | 21.7
COc1ccccc1NC(=S)N1CCC(=C2c3ccc(Cl)cc3CCc3cccnc32)CC1 | Mus musculus | 21.7
CC(C)Cc1ccc(C(C)C(=O)O)cc1 (stereo unspecified) | Mus musculus | 8.69
S=C(NC1CCCCC1)N1CCC(=C2c3ccc(Cl)cc3CCc3cccnc32)CC1 | Mus musculus | 30.4
CNC(=S)N1CCC(=C2c3ccc(Cl)cc3CCc3cccnc32)CC1 | Mus musculus | 26.1

// below: inhibition in vivo at 4 mg/kg requested for another compound
What value of measured inhibition in vivo at 4 mg/kg is listed for Cc1ccccc1NC(=S)N1CCC(=C2c3ccc(Cl)cc3CCc3cccnc32)CC1 ?
13

###

Reported IC50 values for a set of compounds
- System: HT-29
- ASSAY OVERVIEW: cells
- Format: functional, cell-based
- REPORTED CONDITIONS: Homo sapiens, HT-29, 144 h
- Description: Antiproliferative activity against human HT-29 cells assessed as growth inhibition after 144 hrs by crystal violet staining method
# number only, unit µM dropped from output

What value of measured IC50 is listed for CNC(=S)N1CCC(=C2c3ccc(Cl)cc3CCc3cccnc32)CC1 ?
9.6

###

Reported pIC50 values for a set of molecules
- System: HT-29
- ASSAY OVERVIEW: cells
- Assay type: functional, cell-based
- REPORTED CONDITIONS: Homo sapiens, HT-29, 144 h
Kindly note that pIC50 refers to -log10 of the concentration in mol/L and answer with the value alone.

// known answers, use as guide
MOLECULE | TARGET OR SYSTEM | pIC50
S=C(Nc1ccccc1)N1CCC(=C2c3ccc(Cl)cc3CCc3cccnc32)CC1 | HT-29 | 5.17
CCOC(=O)N1CCC(=C2c3ccc(Cl)cc3CCc3cccnc32)CC1 [LORATADINE] | HT-29 | 5.21
COc1ccccc1NC(=S)N1CCC(=C2c3ccc(Cl)cc3CCc3cccnc32)CC1 | HT-29 | 5.04
S=C(NC1CCCCC1)N1CCC(=C2c3ccc(Cl)cc3CCc3cccnc32)CC1 | HT-29 | 5.21

// below: pIC50 requested for another molecule
What value of measured pIC50 is listed for Cc1ccccc1NC(=S)N1CCC(=C2c3ccc(Cl)cc3CCc3cccnc32)CC1 ?
5.18
